For each entry below, report its composite z-score value.
tested on: Neuregulin-1 EGF-like domain; assay: small molecules binding NRG1 EGF domain – biochemical, small-molecule microarray, 635 nm fluorescence, primary screen (AID 1081); conditions: higher = more signal;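 also: binding of the protein to compounds printed on small-molecule microarray slides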
Could you keep your reply to the number by itself?

Hi! What's the reported composite z-score for `C=C(CCCC)C(=O)CC[C@H](OC(C)=O)c1ccc(CO)o1` on Neuregulin-1 EGF-like domain?
0.798

Hi! What's the reported composite z-score for `COCCCNC(=O)[C@@]1(Sc2ccc(C)cc2)CC(=O)N(Cc2ccccc2)[C@@H]1c1ccc(CO)cc1` on Neuregulin-1 EGF-like domain?
-0.233

Hi! What's the reported composite z-score for COc1cc2c(cc1O)C(c1ccc(CN3CCCC3)cc1)N(Cc1sc3ccccc3c1Cl)CC2 (configuration not stated) on Neuregulin-1 EGF-like domain?
1.17

Hi! What's the reported composite z-score for `C=C(COC)C(=O)CC[C@H](OC(=O)c1cccnc1)c1ccccc1OCCO` on Neuregulin-1 EGF-like domain?
1.24

Hi! What's the reported composite z-score for `O=C(NCC(F)(F)F)[C@@H]1c2ccccc2C(=O)N(Cc2ccccc2)[C@H]1c1ccc(CO)cc1` on Neuregulin-1 EGF-like domain?
0.432

Hi! What's the reported composite z-score for `CC(C)C[C@@H]1NC(=O)[C@@H]2C[C@H](C(=O)NCCCCN(C)C)[C@H](c3ccc(O)cc3)N2C1=O` on Neuregulin-1 EGF-like domain?
0.443

Hi! What's the reported composite z-score for `NC(=O)NCC#Cc1ccc2c(c1)[C@]1(C(=O)N2)[C@H](c2ccccc2OCCO)N2[C@H](c3ccccc3)[C@H](c3ccccc3)OC(=O)[C@H]2[C@@H]1C(=O)N1CCCCCCC1` on Neuregulin-1 EGF-like domain?
1.08

Hi! What's the reported composite z-score for `O=S(=O)(NCCCO)c1ccc(Br)cc1` on Neuregulin-1 EGF-like domain?
1.07

Hi! What's the reported composite z-score for `CN(C)CCCC[C@@H]1NC(=O)[C@@H]2C[C@H](C(=O)NCCCCCN)[C@H](c3ccc(O)cc3)N2C1=O` on Neuregulin-1 EGF-like domain?
0.293

Hi! What's the reported composite z-score for `COc1ccccc1CN1C(=O)c2ccccc2[C@](Cc2ccccc2I)(C(=O)NCc2ccccc2)[C@@H]1c1ccc(CO)cc1` on Neuregulin-1 EGF-like domain?
0.535

Hi! What's the reported composite z-score for `COc1ccc([Si](C)(C)[C@H]2[C@H](CC(=O)N3CCC[C@H]3CO)O[C@@]3(C(=O)N(c4ccccc4)c4ccccc43)[C@@H]2C)cc1` on Neuregulin-1 EGF-like domain?
1.05

Hi! What's the reported composite z-score for Cc1ccc(C(C)CC(O)C2C=CC3C(=O)NC(=O)C3N2Nc2ccccn2)o1 (configuration not stated) on Neuregulin-1 EGF-like domain?
0.845

Hi! What's the reported composite z-score for `O=C(NCc1ccccc1)[C@@H]1c2ccccc2C(=O)N(Cc2cc(F)cc(C(F)(F)F)c2)[C@H]1c1ccc(CO)cc1` on Neuregulin-1 EGF-like domain?
1.32

Hi! What's the reported composite z-score for `CC(C)[C@H]1COC(=O)N1C(=O)[C@H]1[C@@H](c2ccccc2)N(c2ccccc2)O[C@@H]1C` on Neuregulin-1 EGF-like domain?
0.974

Hi! What's the reported composite z-score for `COCC1=C([C@H](O)CCc2ccccc2)[C@H](CO)[C@@H]2C(=O)N(Cc3ccccc3)C(=O)[C@@H]2C1` on Neuregulin-1 EGF-like domain?
-0.112

Hi! What's the reported composite z-score for `CN(C)CCCN1C(=O)[C@@]2(c3ccc([N+](=O)[O-])cc3)CC(=O)N(C3CCCCC3)[C@@H]2c2ccc(CO)cc21` on Neuregulin-1 EGF-like domain?
-1.19

Hi! What's the reported composite z-score for `COc1ccc(C#Cc2ccc3c(c2)[C@]2(C(=O)N3)[C@H](C(=O)N3CCc4cc(OC)c(OC)cc4C3)[C@H]3C(=O)O[C@H](c4ccccc4)[C@H](c4ccccc4)N3[C@@H]2c2ccc(OCCO)cc2)cc1` on Neuregulin-1 EGF-like domain?
1.2

Hi! What's the reported composite z-score for CC(c1ccccc1)C(O)C1C=CC2C(=O)N(Cc3ccccc3)C(=O)C2N1n1cnnc1 (configuration not stated) on Neuregulin-1 EGF-like domain?
1.01

Hi! What's the reported composite z-score for CC1(C)C(=O)C(c2ccccc2)=C2CN3C(=O)N(CCc4ccccc4)C(=O)C3(Cc3ccccc3)C=C21 (configuration not stated) on Neuregulin-1 EGF-like domain?
0.949

Hi! What's the reported composite z-score for `CN(C)CCCCNC(=O)[C@@H]1C[C@@H]2C(=O)N[C@@H](CCCCN)C(=O)N2[C@@H]1c1cccc(OCCO)c1` on Neuregulin-1 EGF-like domain?
1.3

Hi! What's the reported composite z-score for `COc1ccc([Si](C)(C)[C@@H]2[C@@H](CCO)O[C@]3(C(=O)N(Cc4ccccc4)c4ccc(N(C=O)c5ccccc5)cc43)[C@H]2C)cc1` on Neuregulin-1 EGF-like domain?
0.979

Hi! What's the reported composite z-score for `C=C(/C(=C/C[C@@H](OC(C)=O)c1ccc(CO)o1)c1cnc2ccccc2c1)C(C)C` on Neuregulin-1 EGF-like domain?
1.32

Hi! What's the reported composite z-score for O=C1NC(=O)C2C1C=CC(C(O)c1cccs1)N2Nc1ccccn1 (configuration not stated) on Neuregulin-1 EGF-like domain?
0.877

Hi! What's the reported composite z-score for `C=C(/C(=C/C[C@@H](OC(=O)c1ccncc1)c1ccc(CO)o1)c1cc(C(=O)OC)ccc1OC)C(C)C` on Neuregulin-1 EGF-like domain?
0.954

Hi! What's the reported composite z-score for `C=C(C(=O)CC[C@H](OC(=O)c1cccnc1)c1ccccc1OCCO)C(C)C` on Neuregulin-1 EGF-like domain?
0.962

Hi! What's the reported composite z-score for `O=c1cccc(-c2ccccc2)o1` on Neuregulin-1 EGF-like domain?
0.811

Hi! What's the reported composite z-score for O=C1OCCC=C[C@H]2OC34C=CCN(c5ccc6ccccc6c5)C(=O)[C@H]3N(CCCCCCO)C(=O)[C@@H]4C12 (some centres not stated) on Neuregulin-1 EGF-like domain?
0.193

Hi! What's the reported composite z-score for C=C(C)[C@@H]1CC=C(C(O)C2C=CC3C(=O)N(Cc4ccccc4)C(=O)C3N2n2cnnc2)CC1 (some centres not stated) on Neuregulin-1 EGF-like domain?
0.703

Hi! What's the reported composite z-score for `NC(=O)[C@]1(Cc2ccccc2)N=C(c2ccc(OCCCO)cc2)O[C@@H]1c1ccccc1` on Neuregulin-1 EGF-like domain?
1.12

Hi! What's the reported composite z-score for `O=C1O[C@@H](c2ccccc2)[C@@H](c2ccccc2)N2[C@@H](c3ccc(O)cc3)[C@]3(C(=O)Nc4ccccc43)[C@@H](C(=O)N3CCCCCCC3)[C@H]12` on Neuregulin-1 EGF-like domain?
1.35

Hi! What's the reported composite z-score for O=C1C2C=CC(C(O)c3ccccn3)N(Nc3ccccc3F)C2C(=O)N1c1ccccc1 (configuration not stated) on Neuregulin-1 EGF-like domain?
1.02

Hi! What's the reported composite z-score for `COCCOC(=O)N1C(=O)[C@@]2(c3cc(C#CCC(C(=O)OC)C(=O)OC)ccc31)[C@H](c1ccccc1OCCO)N1[C@H](c3ccccc3)[C@H](c3ccccc3)OC(=O)[C@H]1[C@@H]2C(=O)Nc1nc2ccccc2s1` on Neuregulin-1 EGF-like domain?
1.06

All values here come from PubChem BioAssay.
